# Tested on: cabbage looper (Trichoplusia ni)
# Assay info: Insecticidal test for cabbage looper (leaf-dip, cabbage leaf discs)
# Assay type: in vivo
# Condition: Trichoplusia ni, foliar, 120 h, dipped cabbage leaf discs, 2nd instar larvae, 5 days, rating of % Control, read-out: CL, activity at 400 ppm against cabbage looper
Measured quantity: pest or weed control at 400 ppm

As a guide, the following entries are already answered.
Molecule	pest or weed control at 400 ppm
Cc1cc(-c2ccc(OC(F)(F)F)cc2)ccc1[C@H]1N=C(c2c(F)cccc2F)O[C@H]1C (mixture of isomers)	90 to 100%
C[C@@H]1OC(c2c(F)cccc2F)=N[C@H]1c1ccc(-c2ccc(C(F)(F)F)cc2)cc1 (mixture of isomers)	90 to 100%

Moving on to another molecule below.
The measured pest or weed control at 400 ppm associated with CC(C)c1ccc(-c2ccc([C@@H]3N=C(c4c(F)cccc4F)O[C@@H]3C)cc2)cc1 (mixture of isomers) reads 90 to 100%

###

# Test system: beet armyworm (Spodoptera exigua)
# Assay info: Insecticidal test for beet armyworm (treated lepidopteran diet)
# Format: in vivo
# Condition: Spodoptera exigua, 120 h, 2nd instar larvae, 5 days, rating of % Control, read-out: BAW, activity at 400 ppm against beet armyworm
Measured quantity: pest or weed control at 400 ppm

Worked set:
Compound	Assay target	Assay value
C[C@@H]1OC(c2c(F)cccc2F)=N[C@H]1c1ccc(-c2ccc(C(F)(F)F)cc2F)cc1 (mixture of isomers)	beet armyworm (Spodoptera exigua)	90 to 100%
Cc1ccc(-c2ccc([C@@H]3N=C(c4c(F)cccc4F)O[C@H]3C)cc2)cc1 (mixture of isomers)	beet armyworm (Spodoptera exigua)	< 50%
Cc1ccc(-c2ccc([C@@H]3N=C(c4c(F)cccc4F)O[C@H]3C)cc2)cc1C (mixture of isomers)	beet armyworm (Spodoptera exigua)	60 to 69%
C[C@H]1OC(c2c(F)cccc2F)=N[C@@H]1c1ccc(I)cc1 (mixture of isomers)	beet armyworm (Spodoptera exigua)	90 to 100%
C[C@@H]1OC(c2c(F)cccc2F)=N[C@H]1c1ccc(-c2cccc(C(F)(F)F)c2)cc1 (mixture of isomers)	beet armyworm (Spodoptera exigua)	90 to 100%
C[C@@H]1OC(c2c(F)cccc2F)=N[C@@H]1c1ccc(-c2ccc(C(F)(F)F)cc2F)cc1 (mixture of isomers)	beet armyworm (Spodoptera exigua)	90 to 100%

Take each entry in turn and give its pest or weed control at 400 ppm.
1. C[C@@H]1OC(c2c(F)cccc2Cl)=N[C@@H]1c1ccc(-c2ccc(C(F)(F)F)cc2)cc1 (mixture of isomers)
2. C[C@@H]1OC(c2c(F)cccc2F)=N[C@@H]1c1ccc(Br)cc1 (mixture of isomers)
3. C[C@@H]1OC(c2c(F)cccc2F)=N[C@H]1c1ccc(-c2ccccc2F)cc1 (mixture of isomers)
4. C[C@@H]1OC(c2c(F)cccc2F)=N[C@@H]1c1ccc(-c2ccc(OC(F)(F)F)cc2)cc1 (stereo in doubt)
5. Cc1ccc(-c2ccc([C@@H]3N=C(c4c(F)cccc4F)O[C@@H]3C)cc2)cc1 (mixture of isomers)
6. C[C@H]1OC(c2c(F)cccc2F)=N[C@H]1c1ccc(-c2cccc(C(F)(F)F)c2)cc1 (mixture of isomers)

Reply:
1. 90 to 100%
2. < 50%
3. < 50%
4. 90 to 100%
5. 90 to 100%
6. 90 to 100%

###

# System: cotton aphid (Aphis gossypii)
# Assay info: Insecticidal test for cotton aphid (spray on infested squash cotyledons)
# Type: in vivo
# Condition: 50 ppm spray, all life stages, 3 days, rating of % Control
Measured quantity: CA, activity at 50 ppm against cotton aphid

Below are worked cases with known answers.
Compound	Assay value
C[C@@H]1OC(c2c(F)cccc2F)=N[C@@H]1c1ccc(I)cc1 (racemic)	A (90-100)
C[C@@H]1OC(c2c(F)cccc2Cl)=N[C@@H]1c1ccc(-c2ccc(C(F)(F)F)cc2)cc1 (mixture of isomers)	A (90-100)
C[C@H]1OC(c2c(F)cccc2F)=N[C@H]1c1ccc(-c2ccc(OC(F)(F)F)cc2)cc1 (mixture of isomers)	A (90-100)
C[C@H]1OC(c2c(F)cccc2F)=N[C@@H]1c1ccc(-c2ccc(OC(F)(F)F)cc2)cc1 [Compound 53]	F (less than 50)
C[C@@H]1OC(c2c(F)cccc2F)=N[C@@H]1c1ccc(Br)cc1 (mixture of isomers)	A (90-100)
C[C@H]1OC(c2c(F)cccc2F)=N[C@@H]1c1ccc(Br)cc1 (mixture of isomers)	A (90-100)
C[C@H]1OC(c2c(F)cccc2F)=N[C@@H]1c1ccc(I)cc1 (mixture of isomers)	A (90-100)
C[C@@H]1OC(c2c(F)cccc2F)=N[C@@H]1c1ccc(-c2ccc(OC(F)(F)F)cc2)cc1 (stereo in doubt)	F (less than 50)

So the reported CA, activity at 50 ppm against cotton aphid for "C[C@@H]1OC(c2c(F)cccc2F)=N[C@H]1c1ccc(Br)cc1" , on cotton aphid (Aphis gossypii), turned out to be A (90-100)
